- tested system: AuroraA-TPX2 (Homo sapiens, UniProt O14965)
- Construct: 20 μL of AuroraA-TPX2 KD GST for a final volume of about 41 μL; GST
- Sequence (O14965 133-383 limits assumed): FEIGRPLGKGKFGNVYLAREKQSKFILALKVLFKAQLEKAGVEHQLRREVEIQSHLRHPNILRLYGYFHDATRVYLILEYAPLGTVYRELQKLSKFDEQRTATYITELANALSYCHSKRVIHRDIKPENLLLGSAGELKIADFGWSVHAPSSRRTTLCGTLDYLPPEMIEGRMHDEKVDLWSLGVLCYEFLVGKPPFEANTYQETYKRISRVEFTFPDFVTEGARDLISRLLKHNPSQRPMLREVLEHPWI
- Sequence (Q9ULW0 1-43 partner limits assumed): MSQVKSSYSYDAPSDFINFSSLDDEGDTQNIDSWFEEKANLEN
- assay name: AuroraA-TPX2 Homogeneous Time Resolved Fluorescent (HTRF) kinase assay
- Format: biochemical
- conditions used: average; read-out: AurA_IC50_IP (uM Avg)

substance smiles	tested system	IC50
COc1cc(OC)c2c(Oc3ccc(Nc4nnc(-c5ccccc5)c5ccccc45)cn3)ncnc2c1	AuroraA-TPX2 (Homo sapiens, UniProt O14965)	> 25 µM
CN(c1ccc(Oc2ccnc3ccc(=O)[nH]c23)cc1)c1nnc(-c2ccc(Cl)cc2)c2ccccc12	AuroraA-TPX2 (Homo sapiens, UniProt O14965)	> 25 µM
FC(F)(F)Oc1ccc2nccc(Sc3ccc(Nc4nnc(-c5ccccc5)c5ccccc45)cc3)c2c1	AuroraA-TPX2 (Homo sapiens, UniProt O14965)	> 25 µM

----------
- tested system: AuroraA-TPX2 (Homo sapiens, UniProt O14965)
- Construct: 20 μL of AuroraA-TPX2 KD GST for a final volume of about 41 μL; GST
- Sequence (O14965 133-383 limits assumed): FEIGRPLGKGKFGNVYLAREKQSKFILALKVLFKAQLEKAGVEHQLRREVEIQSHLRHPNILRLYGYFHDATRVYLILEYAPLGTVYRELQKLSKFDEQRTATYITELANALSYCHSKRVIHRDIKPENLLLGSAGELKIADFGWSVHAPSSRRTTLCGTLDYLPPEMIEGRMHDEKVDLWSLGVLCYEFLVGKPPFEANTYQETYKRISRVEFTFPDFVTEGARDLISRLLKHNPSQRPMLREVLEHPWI
- Sequence (Q9ULW0 1-43 partner limits assumed): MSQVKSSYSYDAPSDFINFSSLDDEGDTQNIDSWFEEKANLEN
- assay name: AuroraA-TPX2 Homogeneous Time Resolved Fluorescent (HTRF) kinase assay
- Format: biochemical
- conditions used: average; read-out: AurA_IC50_IP (uM Avg)
- Procedure: AuroraA-TPX2-Homogeneous Time Resolved Fluorescent (HTRF) Kinase Assay: The Aurora-A HTRF assay begins with Aurora-A in the presence of ATP phosphorylating the biotinylated peptide PLK. The reaction incubates for about 120 min. […] The assay is quenched and stopped with 160 μL of detection reagent. […] Added to this buffer prior to reading is Steptavidin allophycocyanin (SA-APC) at a final conc in the assay of 0.0005 mg/mL, and europilated anti-phosphoPLK Ab (Eu-anti-PLK) at a final conc of 0.02 nM. […]
Please respond with T when measured IC50 is strictly beneath 0.02 µM, and with F in all other cases.

substance smiles	qualitative label
COc1cnc2c(Sc3ccc(Nc4nnc(C5=CCNCC5)c5ccccc45)cc3)ccnc2c1	F
Cc1ccc(-c2nnc(Nc3ccc(Oc4ccnc5ccncc45)cc3)c3ccccc23)nc1	F
COc1cnc2c(Oc3ccc(Nc4nnc(-c5cccc(OC)n5)c5ccccc45)cc3)ccnc2c1	T
COc1cnc2c(Sc3ccc(Nc4nnc(-c5ccc6nonc6c5)c5ccccc45)cc3)ccnc2c1	T
COc1cnc2c(Oc3ccc(Nc4nnc(-c5cc(C)no5)c5ccccc45)cc3)ccnc2c1	F

----------
- tested system: AuroraB (Homo sapiens, UniProt Q96GD4)
- Construct: 20 μL of AuroraB FL H is for a final volume of 41 μL; His
- Sequence (Q96GD4 whole entry): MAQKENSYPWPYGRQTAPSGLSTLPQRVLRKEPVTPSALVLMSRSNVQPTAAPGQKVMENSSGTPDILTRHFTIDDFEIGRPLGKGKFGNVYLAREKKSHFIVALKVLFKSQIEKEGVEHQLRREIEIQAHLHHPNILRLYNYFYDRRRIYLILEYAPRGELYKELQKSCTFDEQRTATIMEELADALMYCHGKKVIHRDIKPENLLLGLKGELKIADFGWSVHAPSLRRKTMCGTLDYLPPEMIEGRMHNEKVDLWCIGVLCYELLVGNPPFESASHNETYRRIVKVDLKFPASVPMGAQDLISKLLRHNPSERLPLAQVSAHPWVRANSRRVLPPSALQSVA
- assay name: AuroraB Homogeneous Time Resolved Fluorescent (HTRF) kinase assay
- Type: biochemical
- conditions used: average; read-out: AurB_IC50_IP (uM Avg)

substance smiles	unit tag	IC50
COc1cnc2c(Oc3ccc(Nc4nnc(-c5ccc6c(c5)OCCO6)c5ccccc45)cc3)ccnc2c1	µM	0.006
COc1cnc2c(Sc3ccc(Nc4nnc(SC)c5ccccc45)cc3)ccnc2c1	µM	0.01
c1ccc(-c2nnc(Nc3ccc(Sc4ccnc5ccoc45)cc3)c3ccccc23)cc1	µM	0.013

----------
- tested system: AuroraA-TPX2 (Homo sapiens, UniProt O14965)
- Construct: 20 μL of AuroraA-TPX2 KD GST for a final volume of about 41 μL; GST
- assay name: AuroraA-TPX2 Homogeneous Time Resolved Fluorescent (HTRF) kinase assay
- Format: biochemical
- conditions used: average; read-out: AurA_IC50_IP (uM Avg)

compound	unit tag	IC50
Clc1ccc(-c2nnc(Nc3ccc(Sc4ccnc5ccoc45)cc3)c3ccccc23)nc1	µM	0.601
Cc1cccc(-c2nnc(Nc3ccc(Sc4ccnc5cccnc45)cc3)c3ccccc23)n1	µM	0.142
Clc1ccc(-c2nnc(Nc3ccc(Sc4ccnc5cccnc45)cc3)c3ccccc23)cc1 [compound 308]	µM	0.029
COc1cnc2c(Oc3ccc(Nc4nnc(-c5ccc(Cl)cc5OC)c5ccccc45)cc3)ccnc2c1	µM	0.173
Cc1csc(-c2nnc(Nc3ccc(Sc4ccnc5ccn(C(C)C)c45)cc3)c3ccccc23)c1	µM	0.064
COc1cnc2c(Oc3ccc(Nc4nnc(-c5ncco5)c5ccccc45)cc3)ccnc2c1	µM	0.087
Clc1ccc(-c2nnc(Nc3ccc(Oc4ccnc5[nH]ccc45)cc3)c3ccccc23)cc1	µM	0.089
COc1cnc2c(Sc3ccc(Nc4nnc(-c5cccc(Cl)c5)c5ccccc45)cc3)ccnc2c1	µM	0.088
COCCOc1ccc2c(Sc3ccc(Nc4nnc(-c5ccc(Cl)cc5)c5ccccc45)cc3)ccnc2c1	µM	0.012
COc1cnc2c(N(C)c3ccc(Nc4nnc(-c5ccccc5)c5ccccc45)cc3)ccnc2c1	µM	0.86
COc1cnc2c(Sc3ccc(Nc4nnc(-c5ccccc5)c5ccccc45)cc3F)ccnc2c1	µM	0.083
COc1cnc2c(Sc3ccc(Nc4nnc(-c5ccc(C)c(OC)c5)c5ccccc45)cc3)ccnc2c1	µM	0.02
Oc1cnc2c(Oc3ccc(Nc4nnc(-c5ccc(Cl)cc5)c5ccccc45)cc3)ccnc2c1	µM	0.02
CC(C)n1ccc2nccc(Sc3ccc(Nc4nnc(-c5ccc(Cl)cc5)c5ccccc45)cc3)c21	µM	0.09
COc1cnc2c(Oc3ccc(Nc4nnc(-c5ccc(OC)nc5)c5ccccc45)cc3)ccnc2c1	µM	0.037
FC1(F)Oc2ccc(-c3nnc(Nc4ccc(Sc5ccnc6cccnc56)cc4)c4ccccc34)cc2O1	µM	0.128
COc1cnc2c(Sc3ccc(Nc4nnc(NCCCSC)c5ccccc45)cc3)ccnc2c1	µM	0.082
COc1cc2nccc(Oc3ccc(Nc4nnc(-c5ccccc5)c5ccccc45)cc3)c2cn1	µM	0.026
CCc1cc(N2CC[C@H]3CCCC[C@@H]3C2)nnc1Nc1ccc(Oc2ccnc3cc(OC)cnc23)cc1 [compound 320]	µM	0.112
COc1cnc2c(Sc3ccc(Nc4nnc(N5CCN6CCCC[C@@H]6C5)c5ccccc45)cc3)ccnc2c1 [compound 580]	µM	0.023
COc1ccc2nccc(Oc3ccc(Nc4nnc(-c5ccccc5)c5ccccc45)cc3)c2c1	µM	0.265
COc1ccc2c(Oc3ccc(Nc4nnc(-c5cc(C)ccn5)c5ccccc45)cc3)ccnc2c1	µM	0.136
c1ccc(-c2nnc(Nc3ccc(Oc4ccnc5ccnn45)cc3)c3ccccc23)cc1	µM	0.505
COc1cc(OC)c2c(Sc3ccc(Nc4nnc(-c5ccc(Cl)cc5)c5ccccc45)cc3)ccnc2c1	µM	0.401
COc1cnc2c(Sc3ccc(Nc4nnc(C(C)C)c5ccccc45)cc3)ccnc2c1	µM	0.378
COc1cnc2c(Oc3ccc(Nc4nnc(N5CCN6CCCCC[C@@H]6C5)c5ccccc45)cc3)ccnc2c1	µM	0.027
Cc1csc(-c2nnc(Nc3ccc(Oc4ccnc5ccncc45)cc3)c3ccccc23)c1	µM	0.046
COc1cnc2c(Oc3ccc(Nc4nnc(-c5ccc(C)c(N)c5)c5ccccc45)cc3)ccnc2c1	µM	0.012
Cc1ccc(-c2nnc(Nc3ccc(Oc4ccnc5ccoc45)cc3)c3ccccc23)cc1N	µM	0.162

----------
Entries and their log10(IC50) values follow.
- tested system: AuroraA-TPX2 (Homo sapiens, UniProt O14965)
- Construct: 20 μL of AuroraA-TPX2 KD GST for a final volume of about 41 μL; GST
- assay name: AuroraA-TPX2 Homogeneous Time Resolved Fluorescent (HTRF) kinase assay
- Assay type: biochemical
- conditions used: average; read-out: AurA_IC50_IP (uM Avg)
quantity measured: log10(IC50) (log10 of the value in µM)

substance smiles	measured number
COc1cnc2c(Oc3ccc(Nc4nnc(-c5cccc(N6CCCCC6)c5)c5ccccc45)cc3)ccnc2c1	-1.47
COc1cc2ncnc(Oc3ccc(Nc4nnc(-c5cc(C)cs5)c5ccccc45)cc3)c2cc1OC	-2.05
c1cnc2c(Sc3ccc(Nc4nnc(-c5ccc6c(c5)OCO6)c5ccccc45)cc3)ccnc2c1	-1.92
c1ccc(-c2nnc(Nc3ccc(Sc4ccnc5[nH]ncc45)cc3)c3ccccc23)cc1	-1.13
c1ccc2c(Sc3ccc(Nc4nnc(-c5ccc6c(c5)OCO6)c5ccccc45)cc3)ccnc2c1	-0.82
c1ccc(-c2nnc(Nc3ccc(Oc4ccnc5ccsc45)cc3)c3ccccc23)cc1	-0.42
CCc1ccc(-c2nnc(Nc3ccc(Oc4ccnc5cc(OC)cnc45)cc3)c3ccccc23)s1	-1.62

Where these numbers come from: patent US8557816B2
